test system: Bacillus subtilis; assay: cleaved RNA product abundance (RNA/gDNA barcode ratio) relative to median wild-type variant (ratio to wild type); higher = more accumulation of the downstream cleavage product; details: experiment (reporter, strain, medium): exp 2b: truncated aprE reporter, strain BJT200; cleavage site: cggR-gapA (positions -7 to +36 mutated)
Outcome label depends on cleaved RNA product abundance relative to 0.1: at/above gives 1 (yes), below gives 0 (no).

Example results:
// query Hi, just wondering whether "ACAGACGAAGGAGCCGCAAAGAAGTTATTAAGGGATGAAAAATCCCTCACTATAAATATCTCTCACTTATTTAAA" shows cleaved RNA product abundance of 0.1 or higher.
// result 1 (yes)

// query Is cleaved RNA product abundance for "ACAGACGAAGGAGCCGCTAAGAAGTTATTAAGGTATGAATAATCCCTCAATATAAATATCTCTCACTTATTTAAA" at or above 0.1?
// result 1 (yes)

// query Could you tell me if the measured cleaved RNA product abundance of "ACAGACGAAGGAGCCGCAAAGAAGTTATTAATGGATGAATAATCCCACAATATAAATATCTCTCACTTATTTAAA" reaches 0.1 or more?
// result 0 (no)

---
// query Can "ACAGACGAAGGAGCCGCAAAGAAGTTATTAAGTTATGAATAATCCGTCAATATAAATATCTCTCACTTATTTAAA" be said to have cleaved RNA product abundance at or above 0.1?
// result 0 (no)

// query # check: cleaved RNA product abundance of "ACAGACGAAGGAGCCGCAAAGAACTTTTTAAGGGATGAATAATCCCTCAATATAAATATCTCTCACTTATTTAAA" is greater than or equal to 0.1
// result 1 (yes)

// query Could you verify whether the entry "ACAGACGAAGGAGCCGCAAAGACGCTATTAAGGGATGAATAATCCCTCAATATAAATATCTCTCACTTATTTAAA" shows cleaved RNA product abundance of no less than 0.1?
// result 1 (yes)

// query Please indicate if the recorded cleaved RNA product abundance for "ACAGACGAAGGAGCCGCAAATAAGTTATTAACGGATGAATAATCCCTCAATATAAATATCTCTCACTTATTTAAA" meets or exceeds 0.1.
// result 1 (yes)
